assay: Inhibition of HCV BK NS5B polymerase deltaC21 mutant; format: single protein, NS5B polymerase (HCV isolate BK)
Measurement name: log10(IC50) (log10 of the value in nM)
Field: value | Transform: log10 | Quantity: IC50 | Unit: nM

I would be grateful if you could share the reported log10(IC50) for CN(C)CC(=O)N1CC[C@H]2Cn3c(c(C4CCCCC4)c4ccc(C(=O)O)cc43)-c3ccccc3[C@@H]21 .
1.49

# repeat for O=C(O)c1ccc2c(C3CCCCC3)c3n(c2c1)C[C@@H]1CCN(CCCN2CCCCC2)[C@@H]1c1ccccc1-3
1.04

# repeat for CN(C)C(=O)CN1CC[C@H]2Cn3c(c(C4CCCCC4)c4ccc(C(=O)O)cc43)-c3ccccc3[C@@H]21
1.23

# repeat for COc1ccc2c(c1)[C@H]1[C@@H](CCN1C(=O)CN(C)C)Cn1c-2c(C2CCCCC2)c2ccc(C(=O)O)cc21
1.36

# repeat for CN(C)CCCN1CC[C@H]2Cn3c(c(C4CCCCC4)c4ccc(C(=O)O)cc43)-c3ccccc3[C@@H]21
1.38

# repeat for COc1ccc2c(c1)[C@H]1[C@@H](CCN1CCN(C)C)Cn1c-2c(C2CCCCC2)c2ccc(C(=O)O)cc21 (stereo in doubt; 11)
0.60

# repeat for COc1ccc2c(c1)[C@H]1[C@@H](CCN1C(=O)OCCN(C)C)Cn1c-2c(C2CCCCC2)c2ccc(C(=O)O)cc21
1.32

# repeat for CN(C)CCN1CC[C@H]2Cn3c(c(C4CCCCC4)c4ccc(C(=O)O)cc43)-c3ccccc3[C@@H]21
1.30

# repeat for COc1ccc2c(c1)[C@@H]1[C@@H](CCN1CCN(C)C)Cn1c-2c(C2CCCCC2)c2ccc(C(=O)O)cc21
1.32

# repeat for CN1CC[C@H]2Cn3c(c(C4CCCCC4)c4ccc(C(=O)O)cc43)-c3ccccc3[C@@H]21
1.60

# repeat for CN(C)CCN1CC[C@H]2Cn3c(c(C4CCCCC4)c4ccc(C(=O)O)cc43)-c3ccccc3[C@H]21
1.48

# repeat for O=C(O)c1ccc2c(C3CCCCC3)c3n(c2c1)C[C@@H]1CCN(CCN2CCCCC2)[C@H]1c1ccccc1-3
1.04

# repeat for CN(C)C(=O)Cn1c(-c2ccccc2)c(C2CCCCC2)c2ccc(C(=O)O)cc21
2.63

# repeat for CN(C)[C@H]1C[C@H]2Cn3c(c(C4CCCCC4)c4ccc(C(=O)O)cc43)-c3ccccc3[C@H]2C1
1.48

# repeat for COc1ccc2c(c1)[C@@H]1[C@H](CCN1CCN(C)C)Cn1c-2c(C2CCCCC2)c2ccc(C(=O)O)cc21
2.49
